# reported protein stability index; entries follow
tested on: Saccharomyces cerevisiae; experiment: protein stability index of tFT-peptide fusion (C-terminal peptide) (PSI (0-1 scale)); higher = more stable (slower turnover); conditions: genetic background: wild type; temperature: 30 C;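 further: PSI is a weighted mean of sequencing reads over stability bins, variants kept only with over 10 reads, mCherry proximal and sfGFP distal, peptide attached via GGGS linker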
assay metric: protein stability index

>>> print(df.to_string())
    chain_sequence             assay_metric  recorded_result
 0    PAALPHTPSAPY  protein stability index            0.666
 1    SAHPFLPLFSPP  protein stability index            0.718
 2    TWCSFHFYSFWC  protein stability index            0.578
 3    VRVSSSDILICL  protein stability index            0.675
 4    SWPTRRLVVHGL  protein stability index            0.655
 5    SRFSRAVSVARV  protein stability index            0.666
 6    IRRPSVTAIRPS  protein stability index            0.667
 7    SPRIDFLLPCSS  protein stability index            0.647
 8    ERGRRPAGGGEK  protein stability index            0.719
 9    LDLSSLRCRYLL  protein stability index            0.343
10    KTFRTYRTYFRK  protein stability index            0.682
11    STQGAFHFLVSL  protein stability index            0.679
12    GGWARGRQGCGG  protein stability index            0.782
13    PPLPPPLLPSSS  protein stability index            0.711
14    LSRPPASPPHPP  protein stability index            0.715
15    YGFFCFLPVFRG  protein stability index            0.661
16    RSASPPRPLPPP  protein stability index            0.737
17    DASCAPAQYLPI  protein stability index            0.673
18    YHRKAILMCTFS  protein stability index            0.443
19    TLSPFRLFGPIS  protein stability index            0.722

----------
test system: Saccharomyces cerevisiae; test: protein stability index of tFT-peptide fusion (C-terminal peptide) (PSI (0-1 scale)); higher = more stable (slower turnover); settings: genetic background: wild type; temperature: 30 C
protein stability index reference
assay metric: protein stability index

In [3]: df
Out[3]:
   chain_sequence             assay_metric  recorded_result
0    PPPPPSPLPPRP  protein stability index            0.624
1    HKKAWVVTVGIS  protein stability index            0.602
2    RGLSGSHRAGIV  protein stability index            0.693
3    MRSRWFAREFGK  protein stability index            0.659
4    PFSSPPPPCRSC  protein stability index            0.718
5    GVFAGGLWCVGF  protein stability index            0.657

----------
system: Saccharomyces cerevisiae; experiment: protein stability index of tFT-peptide fusion (C-terminal peptide) (PSI (0-1 scale)); higher = more stable (slower turnover); settings: genetic background: das1 deletion; temperature: 37 C
protein stability index for assorted sequences
assay metric: protein stability index

In [3]: df
Out[3]:
    chain_sequence             system_tested  recorded_result
 0    LPLHTLLLCPPV  Saccharomyces cerevisiae            0.499
 1    DVWEHLHKQHNM  Saccharomyces cerevisiae            0.753
 2    LYLFKVLFFRVF  Saccharomyces cerevisiae            0.458
 3    NVALHPGVPRKC  Saccharomyces cerevisiae             0.75
 4    AFVALCACVIFV  Saccharomyces cerevisiae            0.362
 5    LRVPCPPCCVFV  Saccharomyces cerevisiae            0.727
 6    LAVFSSPELSFP  Saccharomyces cerevisiae            0.761
 7    FFVFVVFFCFGL  Saccharomyces cerevisiae            0.444
 8    CVLVLLLRLAFL  Saccharomyces cerevisiae            0.599
 9    WLFASCVFFWSS  Saccharomyces cerevisiae            0.525
10    WDPEVVHRLWLN  Saccharomyces cerevisiae            0.766
11    GFTIFFFFFFFV  Saccharomyces cerevisiae            0.266
12    IVFGWGVEWGRL  Saccharomyces cerevisiae            0.797
13    PFLLLVSPISSC  Saccharomyces cerevisiae            0.464
14    LVVAVLKIIMSS  Saccharomyces cerevisiae            0.349
15    VCVLRWAVAPCR  Saccharomyces cerevisiae            0.429
16    TDFICLLWLLHW  Saccharomyces cerevisiae             0.57
17    MQFVALFLVGLL  Saccharomyces cerevisiae            0.525
18    LWFLDYVFICFL  Saccharomyces cerevisiae            0.452
19    LVLFVVGGWVSL  Saccharomyces cerevisiae            0.551
20    LLLVSLAVPLSL  Saccharomyces cerevisiae            0.559
21    FYPFHVFCLLIF  Saccharomyces cerevisiae            0.361
22    CKYCKCVVLLWS  Saccharomyces cerevisiae            0.601
23    VRLHIAMWLRRC  Saccharomyces cerevisiae            0.414
24    FGLMCFIFYVLV  Saccharomyces cerevisiae            0.376
25    VPQQWFAETGRC  Saccharomyces cerevisiae            0.745
26    VHGWRPLLFHTR  Saccharomyces cerevisiae            0.702
27    FWWVGCGWCRWG  Saccharomyces cerevisiae            0.708
